# test.protocol: in vivo
# recorded.conditions: BALB/c, mouse, iv, 5 mg/kg
quantity: AUC(0-t) at 12 h

According to the records, this compound CN(C)C1CCN(C(=O)c2ccc(NC(=O)Nc3ccc(-c4nc(N5CCOCC5)nc(N5CCOCC5)n4)cc3)cc2)CC1 displays AUC(0-t) at 12 h of 31500 ng·h/mL

---

Listed here are molecules together with their documented pIC50.
# target.or.system: Phosphatidylinositol 4,5-bisphosphate 3-kinase catalytic subunit delta isoform (Homo sapiens, UniProt O00329)
Schema: pIC50 number; meaning minus log10 of the concentration expressed in molar units.

{"compound": "O=C(Nc1ccc(-c2nc(N3CCOCC3)nc(N3CCO[C@H](CO)C3)n2)cc1)Nc1ccc2c(c1)COC2=O", "quantity": "pIC50", "quantitative.result": 6.79}

As a next step, examine the molecule that follows.
According to the records, this molecule C[C@H]1COCCN1c1nc(-c2ccc(NC(=O)Nc3ccc4c(c3)COC4=O)cc2)nc(N2CCOCC2)n1 displays pIC50 of 5.88

---

Listed here are compounds together with their documented pIC50.
# target.or.system: Phosphatidylinositol 4,5-bisphosphate 3-kinase catalytic subunit alpha isoform (Homo sapiens, UniProt P42336)
# Sequence (P42336 whole entry, canonical isoform): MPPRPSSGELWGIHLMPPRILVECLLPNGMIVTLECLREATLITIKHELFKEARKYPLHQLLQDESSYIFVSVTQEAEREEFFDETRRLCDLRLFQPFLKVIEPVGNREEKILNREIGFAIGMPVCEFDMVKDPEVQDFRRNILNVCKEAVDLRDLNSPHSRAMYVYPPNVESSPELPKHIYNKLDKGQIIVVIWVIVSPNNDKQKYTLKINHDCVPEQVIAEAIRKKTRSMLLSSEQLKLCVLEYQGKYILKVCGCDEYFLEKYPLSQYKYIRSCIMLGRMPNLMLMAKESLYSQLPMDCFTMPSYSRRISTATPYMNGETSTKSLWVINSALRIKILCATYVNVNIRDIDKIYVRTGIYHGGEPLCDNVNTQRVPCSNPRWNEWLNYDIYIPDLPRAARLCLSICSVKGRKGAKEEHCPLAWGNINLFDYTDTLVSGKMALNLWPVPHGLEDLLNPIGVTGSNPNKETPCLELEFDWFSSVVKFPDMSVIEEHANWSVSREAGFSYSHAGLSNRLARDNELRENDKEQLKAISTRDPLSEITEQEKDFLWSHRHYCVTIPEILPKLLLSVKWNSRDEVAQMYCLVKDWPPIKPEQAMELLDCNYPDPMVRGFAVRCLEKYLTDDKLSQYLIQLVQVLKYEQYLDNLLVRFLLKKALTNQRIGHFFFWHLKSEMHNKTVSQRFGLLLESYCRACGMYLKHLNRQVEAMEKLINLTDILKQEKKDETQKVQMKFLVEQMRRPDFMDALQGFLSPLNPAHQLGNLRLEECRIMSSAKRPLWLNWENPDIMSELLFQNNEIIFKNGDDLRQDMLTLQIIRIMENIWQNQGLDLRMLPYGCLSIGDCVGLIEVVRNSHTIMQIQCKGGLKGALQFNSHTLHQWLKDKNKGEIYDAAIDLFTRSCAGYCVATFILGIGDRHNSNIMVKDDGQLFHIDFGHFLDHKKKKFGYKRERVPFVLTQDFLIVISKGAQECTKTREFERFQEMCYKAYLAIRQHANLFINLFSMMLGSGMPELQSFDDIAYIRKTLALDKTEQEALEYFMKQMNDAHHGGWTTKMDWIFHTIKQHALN
# test.protocol: Inhibition of PI3Kalpha (unknown origin) by ADP-glo plus luminescence assay
Schema: pIC50 number; meaning minus log10 of the concentration expressed in molar units.

See these solved cases before continuing.
{"compound": "O=C(Nc1ccc(-c2nc(N3CCOCC3)nc(N3C4CCC3COC4)n2)cc1)Nc1ccc2c(c1)COC2=O", "pIC50": 6.45}
{"compound": "CC(C)(C)OC(=O)N1C(=O)c2ccc(NC(=O)Nc3ccc(-c4nc(N5CCOCC5)nc(N5CCOCC5)n4)cc3)cc2C1=O", "pIC50": 6.42}

According to the records, this compound CC1OC(=O)c2cc(NC(=O)Nc3ccc(-c4nc(N5CCOCC5)nc(N5CCOCC5)n4)cc3)ccc21 (stereo not drawn) displays pIC50 of 7.34

---

# target.or.system: Phosphatidylinositol 4,5-bisphosphate 3-kinase catalytic subunit delta isoform (Homo sapiens)
# Sequence (O00329 whole entry): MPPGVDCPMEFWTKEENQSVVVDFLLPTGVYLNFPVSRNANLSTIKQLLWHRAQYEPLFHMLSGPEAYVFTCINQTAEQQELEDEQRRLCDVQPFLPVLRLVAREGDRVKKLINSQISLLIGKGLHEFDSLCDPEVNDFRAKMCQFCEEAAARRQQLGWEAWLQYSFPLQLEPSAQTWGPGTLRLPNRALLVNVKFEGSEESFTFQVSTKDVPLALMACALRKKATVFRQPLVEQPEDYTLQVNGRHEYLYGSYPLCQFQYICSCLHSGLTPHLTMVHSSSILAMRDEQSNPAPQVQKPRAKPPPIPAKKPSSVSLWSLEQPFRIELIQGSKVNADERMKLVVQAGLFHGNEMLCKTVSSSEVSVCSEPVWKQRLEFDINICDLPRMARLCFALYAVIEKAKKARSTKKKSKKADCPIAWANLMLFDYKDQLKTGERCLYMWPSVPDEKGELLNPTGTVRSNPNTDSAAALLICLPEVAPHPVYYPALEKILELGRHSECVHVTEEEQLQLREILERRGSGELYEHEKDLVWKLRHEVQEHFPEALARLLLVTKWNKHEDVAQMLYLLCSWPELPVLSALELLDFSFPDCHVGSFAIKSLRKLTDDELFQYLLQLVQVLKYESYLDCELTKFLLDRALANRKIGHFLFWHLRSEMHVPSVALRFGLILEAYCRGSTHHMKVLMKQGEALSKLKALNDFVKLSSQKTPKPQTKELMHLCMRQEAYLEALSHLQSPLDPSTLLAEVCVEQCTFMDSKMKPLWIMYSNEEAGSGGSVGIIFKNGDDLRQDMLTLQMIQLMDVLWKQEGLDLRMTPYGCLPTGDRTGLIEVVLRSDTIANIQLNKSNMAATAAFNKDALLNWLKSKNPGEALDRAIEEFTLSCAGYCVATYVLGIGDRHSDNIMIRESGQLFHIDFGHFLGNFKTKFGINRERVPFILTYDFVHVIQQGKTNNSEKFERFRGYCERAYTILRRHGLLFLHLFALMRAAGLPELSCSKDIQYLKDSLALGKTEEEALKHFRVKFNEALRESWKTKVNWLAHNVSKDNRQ
Listed here are compounds together with their documented IC50.
Please answer in the form of a number followed by its unit of measurement.

See these solved cases before continuing.
{"compound": "O=C(Nc1ccc(-c2nc(N3CCOCC3)nc(N3CCOCC3)n2)cc1)Nc1ccc2c(c1)COC2=O", "quantity": "IC50", "result": "248 nM"}
{"compound": "O=C(Nc1ccc(-c2nc(N3CCOCC3)nc(N3C4CCC3COC4)n2)cc1)Nc1ccc2c(c1)COC2=O", "quantity": "IC50", "result": "1830 nM"}
{"compound": "O=C(Nc1ccc(-c2nc(N3CCOCC3)nc(N3CCOCC3)n2)cc1)Nc1ccc2c(c1)CNC2=O", "quantity": "IC50", "result": "98.3 nM"}

According to the records, this compound O=C(Nc1ccc(-c2nc(N3CCOCC3)nc(N3CCO[C@@H](CO)C3)n2)cc1)Nc1ccc2c(c1)COC2=O displays IC50 of 234 nM
